tested on: Escherichia coli TOP10; assay: shrunken log2 fold change of peptide-encoding DNA abundance (4.5 h post-induction vs induction); higher = less antimicrobial activity (less host growth inhibition); conditions: time post-induction: 4.5 h; library: site-saturation at positions 5, 18, 19, 20
measure: shrunken log2 fold change
Keep the answer to the number alone.

Field: shrunken log2 fold change (Escherichia coli TOP10). Entry: RRIRDRPPRLPRPRPRPDYMPRP
0.0916

Field: shrunken log2 fold change (Escherichia coli TOP10). Entry: RRIRSRPPRLPRPRPRPNDVPRP
-0.134

Field: shrunken log2 fold change (Escherichia coli TOP10). Entry: RRIRFRPPRLPRPRPRPYCSPRP
-0.206

Field: shrunken log2 fold change (Escherichia coli TOP10). Entry: RRIRNRPPRLPRPRPRPLHAPRP
-0.0128

Field: shrunken log2 fold change (Escherichia coli TOP10). Entry: RRIRFRPPRLPRPRPRPFTQPRP
0.0192

Field: shrunken log2 fold change (Escherichia coli TOP10). Entry: RRIRERPPRLPRPRPRPLYIPRP
-0.668

Field: shrunken log2 fold change (Escherichia coli TOP10). Entry: RRIRFRPPRLPRPRPRPFHIPRP
-0.663

Field: shrunken log2 fold change (Escherichia coli TOP10). Entry: RRIRHRPPRLPRPRPRPHCVPRP
-0.01

Field: shrunken log2 fold change (Escherichia coli TOP10). Entry: RRIRWRPPRLPRPRPRPITEPRP
-0.355

Field: shrunken log2 fold change (Escherichia coli TOP10). Entry: RRIRNRPPRLPRPRPRPNTLPRP
-0.788

Field: shrunken log2 fold change (Escherichia coli TOP10). Entry: RRIRNRPPRLPRPRPRPICAPRP
0.0914

Field: shrunken log2 fold change (Escherichia coli TOP10). Entry: RRIRDRPPRLPRPRPRPIRFPRP
-0.0156

Field: shrunken log2 fold change (Escherichia coli TOP10). Entry: RRIRVRPPRLPRPRPRPLAVPRP
0.33

Field: shrunken log2 fold change (Escherichia coli TOP10). Entry: RRIRMRPPRLPRPRPRPRNFPRP
1.12

Field: shrunken log2 fold change (Escherichia coli TOP10). Entry: RRIRPRPPRLPRPRPRPCFHPRP
-0.202

---

tested on: Escherichia coli TOP10; assay: shrunken log2 fold change of peptide-encoding DNA abundance (4.5 h post-induction vs induction); higher = less antimicrobial activity (less host growth inhibition); details: time post-induction: 4.5 h; library: site-saturation at positions 5, 18, 19, 20;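 further: peptides expressed intracellularly from a pBAD plasmid library in pooled LB shake-flask culture, induced with 0.3% L-arabinose, DNA abundance read by NGS, three biological replicates, DESeq2 with apeglm shrinkage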
Classify as follows. Reported shrunken log2 fold change greater than or equal to -0.009: yes. Reported shrunken log2 fold change below: no.

# bool: shrunken log2 fold change of RRIRNRPPRLPRPRPRPIQAPRP >= -0.009
no

# bool: shrunken log2 fold change of RRIRQRPPRLPRPRPRPLDWPRP >= -0.009
yes

# bool: shrunken log2 fold change of RRIRFRPPRLPRPRPRPIVYPRP >= -0.009
no

# bool: shrunken log2 fold change of RRIRPRPPRLPRPRPRPIYKPRP >= -0.009
no

# bool: shrunken log2 fold change of RRIRWRPPRLPRPRPRPQSYPRP >= -0.009
no

# bool: shrunken log2 fold change of RRIRCRPPRLPRPRPRPPKTPRP >= -0.009
yes

# bool: shrunken log2 fold change of RRIRNRPPRLPRPRPRPKFDPRP >= -0.009
no

# bool: shrunken log2 fold change of RRIRKRPPRLPRPRPRPHLHPRP >= -0.009
yes

# bool: shrunken log2 fold change of RRIRYRPPRLPRPRPRPVFHPRP >= -0.009
no

# bool: shrunken log2 fold change of RRIRMRPPRLPRPRPRPRVEPRP >= -0.009
yes

# bool: shrunken log2 fold change of RRIRMRPPRLPRPRPRPLQQPRP >= -0.009
yes

# bool: shrunken log2 fold change of RRIRARPPRLPRPRPRPDKDPRP >= -0.009
yes

# bool: shrunken log2 fold change of RRIRMRPPRLPRPRPRPHDMPRP >= -0.009
yes

# bool: shrunken log2 fold change of RRIRHRPPRLPRPRPRPYTPPRP >= -0.009
no

# bool: shrunken log2 fold change of RRIRWRPPRLPRPRPRPYNQPRP >= -0.009
no

Measured values drawn from the supplement of paper PMC9112550 for this set.
